System: BT-549
EXPERIMENT DESCRIPTION: NCI60 five-dose screen
Format: cell-based
CONDITION SET: Homo sapiens; BT-549, breast cancer; read-out: LC50 (the source's name)
Please note: CC50 exactly at 50 µM is not met. Only values below 50 µM get met.

Confirm or reject: CC50 of `CCOC(=O)c1cc(/C=N/NC(=O)c2[nH]c3ccc(Br)cc3c2-c2ccccc2)c[nH]1` lies strictly below 50 µM
not met

For `O=C(N/N=C/c1cc(Br)c(Br)[nH]1)c1[nH]c2ccc(Br)cc2c1-c1ccccc1` , is the recorded CC50 below the cut-off of 50 µM?
not met

For this compound, is CC50 lower than 50 µM? `Cc1[nH]c(/C=N/NC(=O)c2[nH]c3ccc(Br)cc3c2-c2ccccc2)c(C)c1[N+](=O)[O-]`
met

Problem: For the compound `CCOC(=O)c1c[nH]c(/C=N/NC(=O)c2[nH]c3ccc(Br)cc3c2-c2ccccc2)c1` , is CC50 under 50 µM?
met

Item `CCOC(=O)c1ccc(/C=N/NC(=O)c2[nH]c3ccc(Br)cc3c2-c2ccccc2)[nH]1` : CC50 beneath 50 µM, strictly?
not met

hey, is CC50 for `O=C(N/N=C/c1cc(Br)c[nH]1)c1[nH]c2ccc(Br)cc2c1-c1ccccc1` lower than 50 µM or not?
met

For this compound, is CC50 lower than 50 µM? `O=C(N/N=C/c1[nH]ccc1Cl)c1[nH]c2ccc(Br)cc2c1-c1ccccc1`
met

Please check: CC50 for `CCc1ccc(/C=N/NC(=O)c2[nH]c3ccc(Br)cc3c2-c2ccccc2)[nH]1` , strictly under 50 µM or not?
met
